test system: MS2 coat protein; assay: apparent Kd, MS2 coat protein; higher = weaker binding; RNA-MaP array; FMN 200 µM where present; settings: ligand present: flavin mononucleotide; designed as: ON switch for flavin mononucleotide
Decision: apparent Kd compared against 50 nM; not below it gives Y, below it gives N.

biopolymerSequence: GGUACCAACACAGGAUAUGCUAUCCUUUGGGUAGCAGAAGGGUGAAACAUGAGGAUCACCCAUGUGGUGCCACCCGGUGACGGG
systemUnderTest: MS2 coat protein
cat: Y
//
biopolymerSequence: GUUGCACAAGUUAACAUGAGGAUCACCCAUGUCAAAAGACAUGAGGAUAUGGAGCUGAAGAUUAUCCAGAAGGCAUAAUGCUAA
systemUnderTest: MS2 coat protein
cat: Y
//
biopolymerSequence: GUAGCAUACCGAGGAUAUUCAUAUAGGAAACAAACAUGAGGAUCACCCAUGUGGCGAAAGCCUUGGGAGAAGGCGGAAUGCUAC
systemUnderTest: MS2 coat protein
cat: N
//
biopolymerSequence: UCAUACAUUCGAGGAUAUCGGUGAUUAAUUUUACGAGAAGGCGAUAUAAGAUUUAAUUUUUAAGACAUGAGGAUCACCCAUGUA
systemUnderTest: MS2 coat protein
cat: N
//
biopolymerSequence: GCCAUCGCAUGAGGAUAUGGUCAGCUUUGCUGACCAGAAGGCAUGUCAUAAGACAUGAGGAUCACCCAUGUAGUUAAGAUGGCA
systemUnderTest: MS2 coat protein
cat: N
//
biopolymerSequence: GGAAUAUUUACAGGAUAUCAUUUGUAAAUUCGAUGAGAAGGGUAGAUGUCUUACACGACUUGUUACAUGAGGAUCACCCAUGUU
systemUnderTest: MS2 coat protein
cat: N
//
biopolymerSequence: CGUUCACAUGAGGAUCACCCAUGUCAGAUUUGGUCAGGAUAUGGUCGGCAUCCGCUAUUGCCAGAAGGGACUGUUG
systemUnderTest: MS2 coat protein
cat: N
